Biological target: KRas G12V (Homo sapiens, UniProt P01116, G12V)
Construct: Biotinylated KRas G12V (aa 1-169) loaded with GDP nucleotide; biotin (biotinylated)
Sequence (P01116 1-169 G12V): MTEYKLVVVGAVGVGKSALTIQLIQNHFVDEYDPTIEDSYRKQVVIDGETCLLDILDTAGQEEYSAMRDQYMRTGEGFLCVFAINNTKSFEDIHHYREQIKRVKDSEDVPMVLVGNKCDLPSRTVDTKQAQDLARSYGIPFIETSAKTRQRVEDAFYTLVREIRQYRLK
Test: SOS1-Catalyzed Nucleotide Exchange Assay, KRas G12V (Method 1)
Type: biochemical
Settings: 5 nM KRas G12V (aa 1-169, GDP-loaded), 50 nM SOS1
Attribute: IC50

| COMPOUND | MEASURED_ATTRIBUTE | EXPERIMENTAL_VALUE |
| --- | --- | --- |
| O=C1CCc2c(Cl)cc(O)cc2-c2ncc3c(nc(OC[C@@]45CCCN4C[C@H](F)C5)nc3c2F)N2CCCC(CCN1)C2 (some centres unmarked) [Compound 113a] | IC50 | 1000 to 10000 nM |

Give the measured IC50 of O=C1CCCCc2c(Cl)cc(O)cc2-c2ncc3c(nc(OC[C@@]45CCCN4C[C@H](F)C5)nc3c2F)N2CCC[C@H](CCN1)C2 (single isomer, unassigned) [Compound 115b] .
≤ 100 nM

Find the recorded IC50 belonging to O=C1CCCCc2c(Cl)cc(O)cc2-c2ncc3c(nc(OC[C@@]45CCCN4C[C@H](F)C5)nc3c2F)N2CCC[C@@H](CCN1)C2 (single isomer, unassigned) [Compound 115c] and report it.
≤ 100 nM

What does the record list as IC50 for O=C1CCCCc2c(Cl)cc(O)cc2-c2ncc3c(nc(OC[C@@]45CCCN4C[C@H](F)C5)nc3c2F)N2CCCC(CN1)C2 (some centres unmarked) [Compound 141a] ?
≤ 100 nM

Which IC50 reading was recorded for the compound Oc1cc(Cl)c2c(c1)-c1ncc3c(nc(OC[C@@]45CCCN4C[C@H](F)C5)nc3c1F)N1CCCC(O)(CCCCCC2)C1 (some centres unmarked) [Compound 151a] ?
≤ 100 nM

Using the record for Oc1cc(Cl)c2c(c1)-c1ncc3c(nc(OC[C@@]45CCCN4C[C@H](F)C5)nc3c1F)N1CCCC(O)(CCCCCCC2)C1 (some centres unmarked) [Compound 152a] , report its IC50.
≤ 100 nM

Entry Oc1ccc2c(c1)-c1ncc3c(nc(OC[C@@]45CCCN4C[C@H](F)C5)nc3c1F)N1CCCC(CCCCCCC2)C1 (some centres unmarked) [Compound 143a] has what IC50?
100 to 1000 nM

IC50 lookup needed for Oc1cc2c3c(c(F)ccc3c1)-c1cn(nn1)CCCCC1CCCN(C1)c1nc(OC[C@@]34CCCN3C[C@H](F)C4)nc3c(F)c-2ncc13 (some centres unmarked) [Compound 125a] , thanks.
10000 to 30000 nM

Source listed as patent US20260364089A1.
